molecular target: Kelch-like ECH-associated protein 1 (Homo sapiens) (UniProt Q14145); experiment: Binding affinity to Keap1 in human HaCaT cells assessed as induction of NRF2/ARE activation-mediated HO1 expression at 10 uM after 6 to 24 hrs by Western blot analysis; format: cell-based
Sequence (Q14145 whole entry): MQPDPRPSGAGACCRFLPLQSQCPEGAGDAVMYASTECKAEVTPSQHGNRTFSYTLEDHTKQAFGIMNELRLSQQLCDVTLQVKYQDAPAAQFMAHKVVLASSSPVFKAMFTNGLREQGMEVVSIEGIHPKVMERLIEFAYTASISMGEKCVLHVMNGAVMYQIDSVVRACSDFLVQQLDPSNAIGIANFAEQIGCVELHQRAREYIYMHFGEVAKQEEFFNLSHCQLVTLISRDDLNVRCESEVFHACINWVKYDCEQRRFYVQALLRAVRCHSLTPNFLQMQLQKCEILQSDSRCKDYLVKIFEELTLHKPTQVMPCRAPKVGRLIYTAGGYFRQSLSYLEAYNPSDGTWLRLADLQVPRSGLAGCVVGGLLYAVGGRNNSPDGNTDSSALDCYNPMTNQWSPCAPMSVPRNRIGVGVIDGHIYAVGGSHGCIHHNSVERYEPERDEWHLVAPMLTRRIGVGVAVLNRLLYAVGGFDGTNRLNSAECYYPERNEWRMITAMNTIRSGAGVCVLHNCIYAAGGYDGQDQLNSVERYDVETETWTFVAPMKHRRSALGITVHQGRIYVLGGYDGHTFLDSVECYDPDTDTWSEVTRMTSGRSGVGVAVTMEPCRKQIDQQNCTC
The source made the active and inactive calls. The calls are words filed in the database; no cut-off is given here.
Test Readout: Activity

Given Smiles	Target Under Test	Activity
CCCCCCCCC/C=C1/C(=O)O[C@@H](C)[C@H]1O	Kelch-like ECH-associated protein 1 (Homo sapiens) (UniProt Q14145)	Active
CCCCCCCCCCCCC/C=C1/C(=O)O[C@@H](C)[C@@H]1O	Kelch-like ECH-associated protein 1 (Homo sapiens) (UniProt Q14145)	Active
CCCCCCCCCCCC/C=C1/C(=O)O[C@@H](C)[C@H]1O	Kelch-like ECH-associated protein 1 (Homo sapiens) (UniProt Q14145)	Active
CCCCC/C=C1/C(=O)O[C@@H](C)[C@H]1O	Kelch-like ECH-associated protein 1 (Homo sapiens) (UniProt Q14145)	inactive
CCCCCCCCCCCCC/C=C1\C(=O)O[C@@H](C)[C@H]1O	Kelch-like ECH-associated protein 1 (Homo sapiens) (UniProt Q14145)	Active
CCCCCCCCCCCCCC[C@@H]1C[C@H](O)OC1=O	Kelch-like ECH-associated protein 1 (Homo sapiens) (UniProt Q14145)	inactive

Enquiry: Which value of Activity has been reported for CCCCCCCCCCC/C=C1/C(=O)O[C@@H](C)[C@H]1O in the records?
Return: Active

Enquiry: Now the same for CCCCCCCCCCCCC/C=C1/C(=O)O[C@@H](C)[C@H]1OC(=O)CC(C)C
Return: inactive

----------
target: UniProt:Q14145; assay: Binding affinity to Keap1 in human HaCaT cells assessed as induction of NRF2/ARE activation-mediated HO1 expression at 10 uM after 6 to 24 hrs by Western blot analysis; format: cell-based
Active and inactive are the calls of the source. No cut-off for these calls is given here.
The reply should be one of these categories: 1.0 for active, 0.0 for inactive

Some entries whose results are on file:
Given Smiles	Discrete Label
CCC/C=C1/C(=O)O[C@@H](C)[C@H]1O	0.0
CCCCCCCCCCCCCC[C@H]1C(=O)O[C@@H](O)[C@H]1O	0.0
CCCCCCCCCC/C=C1/C(=O)O[C@@H](C)[C@H]1O	1.0

Now examine the next entry.
Enquiry: Status in this test for CCCCCCCCCCCCC/C=C1\C[C@H](C)OC1=O ?
Return: 0.0
